Numbers sourced from patent EP0888303B1.

Reported IC50 is given for each of the following compounds.
Measurement target: F36M mutant FKBP
Experimental details: Competitive Binding FP Assay
Run parameters: Synthetic Monomers table; normalized to value of FK506 run in the same experiment

[
  {
    "Compound": "COc1ccc(CC[C@@H](OC(=O)[C@@H]2CCCCN2C(=O)[C@@H](C)c2ccccc2)c2cccc(OCC(=O)O)c2)cc1OC [AP1784]",
    "Measurement target": "F36M mutant FKBP",
    "IC50 (nM)": 414
  },
  {
    "Compound": "COc1ccc(CC[C@@H](OC(=O)[C@@H]2CCCCN2C(=O)Cc2ccccc2)c2cccc(OCC(=O)O)c2)cc1OC [AP1780]",
    "Measurement target": "F36M mutant FKBP",
    "IC50 (nM)": 2600
  },
  {
    "Compound": "COc1ccc(CC[C@@H](OC(=O)[C@@H]2CCCCN2C(=O)[C@H](C)c2ccccc2)c2cccc(OCC(=O)O)c2)cc1OC [AP1782]",
    "Measurement target": "F36M mutant FKBP",
    "IC50 (nM)": 927
  },
  {
    "Compound": "CCC(C(=O)N1CCCC[C@H]1C(=O)O[C@H](CCc1ccc(OC)c(OC)c1)c1cccc(OCC(=O)O)c1)c1ccc2c(c1)OCO2 (stereo partly drawn) [AP1839]",
    "Measurement target": "F36M mutant FKBP",
    "IC50 (nM)": 19
  },
  {
    "Compound": "CC[C@@H](C(=O)N1CCCC[C@H]1C(=O)O[C@H](CCc1ccc(OC)c(OC)c1)c1cccc(OCC(=O)O)c1)c1ccccc1 [AP1769]",
    "Measurement target": "F36M mutant FKBP",
    "IC50 (nM)": 193
  },
  {
    "Compound": "COc1ccc(CC[C@@H](OC(=O)[C@@H]2CCCCN2C(=O)C(c2ccccc2)c2ccccc2)c2cccc(OCC(=O)O)c2)cc1OC [AP14245]",
    "Measurement target": "F36M mutant FKBP",
    "IC50 (nM)": 173
  }
]

* * *

Reported pIC50 is given for each of the following compounds.
Measurement target: F36I mutant FKBP
Experimental details: Competitive Binding FP Assay
Run parameters: Synthetic Monomers table; normalized to value of FK506 run in the same experiment
pIC50: −log10 of the molar value.

[
  {
    "Compound": "CCC(C(=O)N1CCCC[C@H]1C(=O)O[C@H](CCc1ccc(OC)c(OC)c1)c1cccc(OCC(=O)O)c1)c1ccc2c(c1)OCO2 (stereo partly drawn)",
    "pIC50": 7.59
  },
  {
    "Compound": "COc1ccc(CC[C@@H](OC(=O)[C@@H]2CCCCN2C(=O)Cc2ccccc2)c2cccc(OCC(=O)O)c2)cc1OC",
    "pIC50": 5.69
  },
  {
    "Compound": "COc1ccc(CC[C@@H](OC(=O)[C@@H]2CCCCN2C(=O)C(c2ccccc2)c2ccccc2)c2cccc(OCC(=O)O)c2)cc1OC",
    "pIC50": 6.25
  }
]

* * *

Measurement target: wild-type human FKBP12 (Homo sapiens, UniProt P62942)
Sequence (P62942 2-108): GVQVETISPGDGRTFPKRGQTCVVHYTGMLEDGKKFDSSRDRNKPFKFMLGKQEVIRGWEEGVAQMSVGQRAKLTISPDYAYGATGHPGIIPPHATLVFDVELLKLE
Experimental details: Competitive Binding FP Assay
Run parameters: read-out: FKBPwt binding affinity IC50
Property name: IC50 (µM)

[
  {
    "Molecule": "CCC(C(=O)N1CCCC[C@H]1C(=O)O[C@H](CCc1ccc(OC)c(OC)c1)c1cccc(OCC(=O)O)c1)c1ccc2c(c1)OCO2 (some centres unmarked)",
    "Measurement target": "wild-type human FKBP12 (Homo sapiens, UniProt P62942)",
    "Value units": "µM",
    "Assay value": 16.7
  },
  {
    "Molecule": "CC[C@H](C(=O)N1CCCC[C@H]1C(=O)O[C@H](CCc1ccc(OC)c(OC)c1)c1cccc(OCC(=O)O)c1)c1cc(OC)c(OC)c(OC)c1",
    "Measurement target": "wild-type human FKBP12 (Homo sapiens, UniProt P62942)",
    "Value units": "µM",
    "Assay value": 1.96
  }
]
